Target Or Test System: human Focal Adhesion Kinase (FAK) (Homo sapiens)
Construct: FAK (full length human cDNA described by Andre et al); cleared cell lysate used as enzyme stock
Sequence (Q05397 whole entry): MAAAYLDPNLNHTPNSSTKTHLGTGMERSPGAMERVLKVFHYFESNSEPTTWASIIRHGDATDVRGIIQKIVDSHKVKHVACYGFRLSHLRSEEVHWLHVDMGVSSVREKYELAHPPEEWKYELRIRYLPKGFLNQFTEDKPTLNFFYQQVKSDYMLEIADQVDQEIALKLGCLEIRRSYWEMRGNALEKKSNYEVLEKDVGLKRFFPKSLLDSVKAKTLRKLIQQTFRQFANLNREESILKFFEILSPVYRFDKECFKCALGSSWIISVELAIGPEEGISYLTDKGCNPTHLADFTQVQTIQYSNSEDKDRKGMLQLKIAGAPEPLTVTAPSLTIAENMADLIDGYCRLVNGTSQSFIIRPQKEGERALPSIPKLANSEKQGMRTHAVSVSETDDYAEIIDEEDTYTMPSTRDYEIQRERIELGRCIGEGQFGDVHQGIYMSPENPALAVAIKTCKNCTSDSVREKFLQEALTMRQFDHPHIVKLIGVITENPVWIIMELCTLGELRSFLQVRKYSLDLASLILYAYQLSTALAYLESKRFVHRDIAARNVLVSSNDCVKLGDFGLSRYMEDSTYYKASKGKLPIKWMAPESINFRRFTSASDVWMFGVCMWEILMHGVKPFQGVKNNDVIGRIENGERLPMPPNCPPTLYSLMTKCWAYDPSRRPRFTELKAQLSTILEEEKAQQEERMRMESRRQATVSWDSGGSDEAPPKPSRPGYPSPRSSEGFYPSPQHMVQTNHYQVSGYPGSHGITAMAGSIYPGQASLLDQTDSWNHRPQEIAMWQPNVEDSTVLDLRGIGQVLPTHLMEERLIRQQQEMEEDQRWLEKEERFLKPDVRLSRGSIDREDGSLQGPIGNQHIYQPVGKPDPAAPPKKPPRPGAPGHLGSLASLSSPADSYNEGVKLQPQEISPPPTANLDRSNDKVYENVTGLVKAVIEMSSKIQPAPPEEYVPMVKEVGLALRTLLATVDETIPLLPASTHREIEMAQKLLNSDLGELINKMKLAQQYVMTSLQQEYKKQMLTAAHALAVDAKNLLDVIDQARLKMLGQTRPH
Assay Summary: FAK3 Kinase Inhibition Assay (in vitro enzyme assay)
Protocol Conditions: read-out: FAK inhibitory activity IC50
Result Type: IC50 (nM)
Quick reminder: number only, in nM, skip the unit.

Q: Look up IC50: CCN(CC)CCOc1ccc(Nc2ncc(Br)c(Nc3ccccc3)n2)cc1
Result: 218

###

Target Or Test System: CDK4/Cyclin D1 (Homo sapiens, UniProt P11802)
Sequence (P11802 whole entry): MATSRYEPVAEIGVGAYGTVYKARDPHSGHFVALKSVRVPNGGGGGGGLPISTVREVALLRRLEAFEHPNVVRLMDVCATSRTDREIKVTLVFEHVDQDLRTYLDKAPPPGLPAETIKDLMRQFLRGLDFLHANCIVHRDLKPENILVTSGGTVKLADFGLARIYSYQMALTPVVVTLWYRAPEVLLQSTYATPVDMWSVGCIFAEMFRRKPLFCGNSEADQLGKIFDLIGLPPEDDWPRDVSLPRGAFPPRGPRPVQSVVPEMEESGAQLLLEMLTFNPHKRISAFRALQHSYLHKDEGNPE
Sequence (P24385 whole entry partner): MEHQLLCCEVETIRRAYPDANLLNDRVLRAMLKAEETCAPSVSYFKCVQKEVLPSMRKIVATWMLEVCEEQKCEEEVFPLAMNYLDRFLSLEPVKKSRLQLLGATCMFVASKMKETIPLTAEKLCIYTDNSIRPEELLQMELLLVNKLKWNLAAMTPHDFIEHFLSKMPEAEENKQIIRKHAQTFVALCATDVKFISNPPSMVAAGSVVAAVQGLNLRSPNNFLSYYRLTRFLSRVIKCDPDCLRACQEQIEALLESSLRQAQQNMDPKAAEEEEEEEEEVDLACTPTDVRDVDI
Assay Summary: CDK4 Inhibition Assay (Scintillation Proximity Assay, GST-Retinoblastoma substrate)
Protocol Conditions: in vitro kinase assay, 0.2 μM ATP; read-out: CDK4 inhibitory activity IC50
Result Type: IC50 (nM)
Quick reminder: number only, in nM, skip the unit.

Q: Look up IC50: OCCOCc1ccc(Nc2ncc(Br)c(Nc3ccccc3)n2)cc1
Result: 679
